system: AR mRNA; test: Dose-dependent antisense inhibition of human AR in HuVEC cells (electroporation, qRT-PCR RTS3559, IC50); assay type: cell-based; details: 1000.0 nM; HuVEC, ~16 h; Table 14
Oligonucleotides are written 5' to 3', each unit as a sugar letter and its base; * is a phosphorothioate linkage, no mark a phosphodiester; rarer units and linkages stand in square brackets, end groups in braces. Plain capitals give the bases only. e = 2'-O-(2-methoxyethyl) (MOE); k = constrained ethyl (cEt); [5mC] = 5-methylcytosine; d = 2'-deoxy (DNA)
Classification field: enter condition met for percent inhibition of AR values not below 80%, condition not met for values below it.

query: # bool: percent inhibition of AR of 569227 (antisense eT*eG*kA*kT*kT*dT*dA*dA*dT*dG*dG*dT*kT*kG*k[5mC]*eA) [compound 569227] >= 80%
result: condition not met

query: Reported percent inhibition of AR at or above 80%? 569229 (antisense eG*eT*kT*kG*kA*dT*dT*dT*dA*dA*dT*dG*kG*kT*kT*eG) [compound 569229]
result: condition met

query: Does the reported percent inhibition of AR for 569215 (antisense kT*kG*kG*dT*dT*dG*dA*dT*dT*dT*dA*dA*kT*kG*kG*eT) [compound 569215] fall at or above the 80% mark?
result: condition met

* * *

tested on: AR mRNA; assay: AR mRNA levels in LMR20 cells (with/without DHT or R1881); format: cell-based, human; conditions: LMR20 cells, R1881 10 nM 72 hrs, ASO 0.04 μM
Oligonucleotides are written 5' to 3', each unit as a sugar letter and its base; * is a phosphorothioate linkage, no mark a phosphodiester; rarer units and linkages stand in square brackets, end groups in braces. Plain capitals give the bases only. e = 2'-O-(2-methoxyethyl) (MOE); l = locked nucleic acid (LNA); k = constrained ethyl (cEt); [5mC] = 5-methylcytosine; d = 2'-deoxy (DNA)
I'd be grateful if you could share measured AR mRNA levels (% baseline value) after treatment with R1881 for these entries.

query: Fill in reported AR mRNA levels (% baseline value) after treatment with R1881 for this entry: 569236 (antisense eT*kG*kA*kT*dT*dT*dA*dA*dT*dG*dG*kT*kT*kG*e[5mC]*eA) [compound 569236]
result: 89 % baseline value

query: Give me measured AR mRNA levels (% baseline value) after treatment with R1881, please, for this substance: 554221 (ACCAAGTTTCTTCAGC; sugars from the 5' end l3 d10 l3, all phosphorothioate, methylation of C not given here) [compound 554221]
result: 131 % baseline value

query: Please indicate AR mRNA levels (% baseline value) after treatment with R1881 recorded for 549458 (kG*kT*kT*dG*dA*dT*dT*dT*dA*dA*dT*dG*dG*kT*kT*kG) [compound 549458]
result: 88 % baseline value

query: State its AR mRNA levels (% baseline value) after treatment with R1881 for this substance: 560131 (antisense kT*kT*kG*dA*dT*dT*dT*dA*dA*dT*dG*dG*kT*kT*kG*e[5mC]) [compound 560131]
result: 87 % baseline value

* * *

tested on: AR mRNA; test: Dose-dependent antisense inhibition of human AR in HuVEC cells (electroporation, qRT-PCR RTS3559, IC50); assay type: cell-based; conditions: Table 34; HuVEC, electroporation, approximately 16 hours
Oligonucleotides are written 5' to 3', each unit as a sugar letter and its base; * is a phosphorothioate linkage, no mark a phosphodiester; rarer units and linkages stand in square brackets, end groups in braces. Plain capitals give the bases only. k = constrained ethyl (cEt); [5mC] = 5-methylcytosine; d = 2'-deoxy (DNA)
Consider the following substances; for each one, report its pIC50.
Bear in mind: pIC50 is minus log10 of a mol/L concentration; give just that figure.

query: Fill in reported pIC50 for this entry: 584128 (kA*kT*kT*d[5mC]*dT*dT*dG*dA*d[5mC]*dT*dG*dT*d[5mC]*kT*kG*kA; antisense) [compound 584128]
result: 6.13

query: Specify pIC50 for 584069 (k[5mC]*kA*kG*dA*dG*dT*d[5mC]*dA*dT*d[5mC]*d[5mC]*d[5mC]*dT*kG*k[5mC]*kT; antisense) [compound 584069] and stop.
result: 6.52

query: Dear colleague, please send me the reported pIC50 for 584139 (kT*k[5mC]*kT*dA*dA*dA*d[5mC]*dA*dT*dG*dA*d[5mC]*dG*kG*kT*kT; antisense) [compound 584139] when you can.
result: 6.40

* * *

tested on: AR mRNA; assay: Dose-dependent antisense inhibition of human AR in HuVEC cells (electroporation, qRT-PCR RTS3559, IC50); assay type: cell-based; settings: Table 29; 3000.0 nM, HuVEC, electroporation, approximately 16 hours
Oligonucleotides are written 5' to 3', each unit as a sugar letter and its base; * is a phosphorothioate linkage, no mark a phosphodiester; rarer units and linkages stand in square brackets, end groups in braces. Plain capitals give the bases only. k = constrained ethyl (cEt); [5mC] = 5-methylcytosine; d = 2'-deoxy (DNA)
Rule: satisfied for percent inhibition of AR, 3000.0 nM not less than 70%, not satisfied for anything less.

query: Form field: percent inhibition of AR, 3000.0 nM at least 70%? Entry: 583613 (antisense kG*k[5mC]*kA*dA*dT*dG*dT*dG*d[5mC]*dA*dG*d[5mC]*dT*kA*kG*k[5mC]) [compound 583613]
result: satisfied

query: Dear colleague, could you confirm whether 583564 (antisense kG*k[5mC]*kT*dT*d[5mC]*d[5mC]*dT*d[5mC]*d[5mC]*dG*dA*dG*dT*k[5mC]*kT*kT) [compound 583564] has percent inhibition of AR, 3000.0 nM at or above 70%?
result: satisfied

query: Would you say 583635 (antisense k[5mC]*kT*kG*dG*d[5mC]*dT*d[5mC]*d[5mC]*dG*d[5mC]*dA*d[5mC]*dT*k[5mC]*kG*kG) [compound 583635] shows percent inhibition of AR, 3000.0 nM at minimum 70%?
result: satisfied

query: Given the entry 583556 (antisense kA*kA*k[5mC]*dT*dT*d[5mC]*dA*d[5mC]*d[5mC]*dG*dA*dA*dG*kA*kG*kG) [compound 583556] , answer whether its percent inhibition of AR, 3000.0 nM meets or surpasses 70%.
result: not satisfied

query: For this substance, is measured percent inhibition of AR, 3000.0 nM 70% or higher? 583638 (antisense kT*kG*kA*dT*d[5mC]*dT*d[5mC]*dT*dG*dG*d[5mC]*dT*d[5mC]*k[5mC]*kG*k[5mC]) [compound 583638]
result: satisfied

query: Is reported percent inhibition of AR, 3000.0 nM greater than or equal to 70% here: 583583 (antisense kG*kA*k[5mC]*dT*dG*dA*dG*dG*d[5mC]*dA*dG*d[5mC]*dT*kG*k[5mC]*kG) [compound 583583]
result: not satisfied

query: # check: percent inhibition of AR, 3000.0 nM of 583566 (antisense k[5mC]*k[5mC]*kT*dT*dG*d[5mC]*dT*dT*d[5mC]*d[5mC]*dT*d[5mC]*d[5mC]*kG*kA*kG) [compound 583566] is greater than or equal to 70%
result: satisfied

query: hey, is percent inhibition of AR, 3000.0 nM for this one >= 70%? 583609 (antisense k[5mC]*kA*kG*d[5mC]*dT*dA*dG*d[5mC]*dT*d[5mC]*dG*d[5mC]*d[5mC]*k[5mC]*kG*k[5mC]) [compound 583609]
result: satisfied

query: Threshold query (percent inhibition of AR, 3000.0 nM >= 70%) on 583662 (antisense kA*kG*kA*dA*dG*dA*d[5mC]*dA*d[5mC]*dA*d[5mC]*dG*dG*kT*kG*kG) [compound 583662]
result: satisfied

query: Given 549458 (kG*kT*kT*dG*dA*dT*dT*dT*dA*dA*dT*dG*dG*kT*kT*kG) [compound 549458] , state whether its percent inhibition of AR, 3000.0 nM is at least 70%.
result: satisfied

query: Kindly determine if percent inhibition of AR, 3000.0 nM recorded for 583542 (antisense kA*k[5mC]*kA*dG*d[5mC]*dA*d[5mC]*dT*dG*dG*dA*dG*d[5mC]*kG*kG*k[5mC]) [compound 583542] is above or exactly 70%.
result: not satisfied

query: Textbook exercise: given the entry 583608 (antisense kG*k[5mC]*kT*dA*dG*d[5mC]*dT*d[5mC]*dG*d[5mC]*d[5mC]*d[5mC]*dG*k[5mC]*kT*k[5mC]) [compound 583608] , state whether its percent inhibition of AR, 3000.0 nM is greater than or equal to 70%.
result: satisfied

* * *

system: AR mRNA; assay: Dose-dependent antisense inhibition of human AR in HuVEC cells (electroporation, qRT-PCR RTS3559, IC50); format: cell-based; conditions: Table 29; 46.9 nM, HuVEC, electroporation, approximately 16 hours
Oligonucleotides are written 5' to 3', each unit as a sugar letter and its base; * is a phosphorothioate linkage, no mark a phosphodiester; rarer units and linkages stand in square brackets, end groups in braces. Plain capitals give the bases only. k = constrained ethyl (cEt); [5mC] = 5-methylcytosine; d = 2'-deoxy (DNA)
property.label: percent inhibition of AR, 46.9 nM
Please provide the amount together with its unit, number first.

query: Report value: percent inhibition of AR, 46.9 nM, system: AR mRNA, substance: 583613 (antisense kG*k[5mC]*kA*dA*dT*dG*dT*dG*d[5mC]*dA*dG*d[5mC]*dT*kA*kG*k[5mC]) [compound 583613]
result: 24%

query: Given 583635 (antisense k[5mC]*kT*kG*dG*d[5mC]*dT*d[5mC]*d[5mC]*dG*d[5mC]*dA*d[5mC]*dT*k[5mC]*kG*kG) [compound 583635] , report its percent inhibition of AR, 46.9 nM on AR mRNA.
result: 35%

query: Fill in percent inhibition of AR, 46.9 nM for 583564 (antisense kG*k[5mC]*kT*dT*d[5mC]*d[5mC]*dT*d[5mC]*d[5mC]*dG*dA*dG*dT*k[5mC]*kT*kT) [compound 583564] tested with AR mRNA.
result: 16%
